# system: 5-lipoxygenase (Rattus norvegicus)
# Construct: 20,000xg supernatant from homogenized RBL-1 cells; endogenous in cells
# experimental.protocol: In vitro inhibition of 5-lipoxygenase (20,000xg supernatant from homogenized RBL-1 cells)
# recorded.conditions: read-out: IC50 (concentrations producing 50% enzyme inhibition)
property.measured: IC50 (nM)

Consider the reported IC50 for these compounds:
CNC(=O)N(O)C(C)c1ccc(CC(C)C)cc1 (centres unmarked) :: 700
CNC(=O)N(O)C(C)c1ccc2cc(OC)ccc2c1 (centres unmarked) :: 600
CNC(=O)N(O)CCc1c(C)n(C(=O)c2ccc(Cl)cc2)c2ccc(OC)cc12 :: 200

I. CC(C)Cc1ccc(C(C)CN(O)C(N)=O)cc1 (centres unmarked)
II. COc1ccc2cc(C(C)N(O)C(C)=O)ccc2c1 (centres unmarked)
INPUT: Select one. Lower IC50: I or II Refer to your chosen item by its label in the answer.
OUTPUT: I
(I: 200 nM, II: 700 nM)

----------
# system: 5-lipoxygenase (Rattus norvegicus, UniProt P12527)
# Construct: 20,000xg supernatant from homogenized RBL-1 cells; endogenous in cells
# Sequence (P12527 1-673): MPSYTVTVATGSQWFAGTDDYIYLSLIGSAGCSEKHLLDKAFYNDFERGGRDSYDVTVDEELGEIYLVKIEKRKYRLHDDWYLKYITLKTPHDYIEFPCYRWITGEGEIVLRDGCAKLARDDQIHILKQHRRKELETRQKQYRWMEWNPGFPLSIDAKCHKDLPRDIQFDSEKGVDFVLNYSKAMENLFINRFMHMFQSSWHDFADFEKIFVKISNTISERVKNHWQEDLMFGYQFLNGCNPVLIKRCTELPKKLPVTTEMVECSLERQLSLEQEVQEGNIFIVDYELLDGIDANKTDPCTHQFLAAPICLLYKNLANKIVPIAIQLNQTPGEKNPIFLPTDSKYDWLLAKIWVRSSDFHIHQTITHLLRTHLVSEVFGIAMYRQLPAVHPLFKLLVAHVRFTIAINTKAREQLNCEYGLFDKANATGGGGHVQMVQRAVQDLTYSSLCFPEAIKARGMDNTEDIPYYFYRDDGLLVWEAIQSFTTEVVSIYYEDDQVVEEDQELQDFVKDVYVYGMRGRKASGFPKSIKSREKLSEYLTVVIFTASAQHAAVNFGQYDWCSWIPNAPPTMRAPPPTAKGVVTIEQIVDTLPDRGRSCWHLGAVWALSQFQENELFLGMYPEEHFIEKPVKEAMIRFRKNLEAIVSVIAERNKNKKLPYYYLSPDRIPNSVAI
# experimental.protocol: In vitro inhibition of 5-lipoxygenase (20,000xg supernatant from homogenized RBL-1 cells)
# recorded.conditions: read-out: IC50 (concentrations producing 50% enzyme inhibition)
pIC50: −log10 of the molar value.
property.measured: pIC50

COc1ccc2cc(C(C)N(O)C(N)=O)ccc2c1 (stereo not drawn) :: 6.37

1. COc1ccc2c(c1)c(CCN(O)C(N)=O)c(C)n2C(=O)c1ccc(Cl)cc1
2. CC(C)Cc1ccc(C(C)N(O)C(N)=O)cc1 (stereo not drawn)
3. CCSC(=O)N(O)C(C)c1ccc(CC(C)C)cc1 (stereo not drawn)
INPUT: Provide the items ranked by increasing pIC50. Thanks in advance for listing the labels in the requested order.
OUTPUT: 2, 1, 3
(2: 6.19, 1: 6.40, 3: 6.70)
